The reported numbers originate from the antibiotic and cytotoxicity screens of Wong et al. (2023).

system: HepG2; assay: cytotoxicity call (relative viability < 0.9); settings: 10 µM
The whole screen tested about 39,000 compounds, of which about 3,300 (8.5%) were called active. Many of the other results were omitted from the sample, so actives are more common in it than they were.
Lab note: assign the record to one of 1 for active, 0 for inactive

Identify the outcome logged in this assay for the compound shown: COc1ccc([Si](C)(C)[C@H]2[C@H](CCn3cc([C@H](O)c4ccccc4)nn3)O[C@@]3(C(=O)N(Cc4cccc(N5C(=O)c6cccc7cccc5c67)c4)c4ccccc43)[C@@H]2C)cc1
0

And COc1ccc([Si](C)(C)[C@@H]2[C@@H](CCn3cc([C@H](O)c4ccccc4)nn3)O[C@]3(C(=O)N(c4ccccc4)c4ccccc43)[C@H]2C)cc1 ?
0

Would you kindly repeat that for C[C@H]1CCCCO[C@H](CN(C)S(=O)(=O)c2cn(C)cn2)[C@@H](C)CN([C@@H](C)CO)C(=O)c2cc(NS(C)(=O)=O)ccc2O1 ?
0

Same thing, different compound: C[C@H]1CCCN(C(=O)N2c3ccccc3Sc3ccccc32)C1
0

Can you check CN1CCC[C@@H](CC2c3ccccc3Sc3ccccc32)C1 next?
1

Continue with CO[C@H]1CN(C)C(=O)c2ccc(NC(=O)NC(C)C)cc2OC[C@H](C)N(Cc2ccc(-c3ccccn3)cc2)C[C@@H]1C
0

Next up: COc1ccc([Si](C)(C)[C@@H]2[C@@H](CCn3cc(CCO)nn3)O[C@]3(C(=O)N(C)c4ccccc43)[C@H]2C)cc1
0

Then CN1CCN2c3ccccc3Cc3ccccc3C2C1.Cl (stereo not drawn) ?
0

====

system: HepG2; assay: cytotoxicity call (relative viability < 0.9); conditions: 10 µM
In all, about 39,000 compounds went through this assay and about 3,300 (8.5%) were called active. The sample holds actives, similar compounds and a random draw of the others, so the mix is not that of the screen.
Write down the outcome that applies. Available outcomes: active, inactive

Which outcome did this test record for the compound Cc1noc(C)c1NC(=O)Nc1ccc2c(c1)CC(=O)N([C@H](C)CO)C[C@@H](C)[C@H](CN(C)Cc1ccc(C(=O)Nc3ccccc3N)cc1)O2 ?
inactive

Likewise for C[C@@H]1CN([C@@H](C)CO)C(=O)Cc2cc(NC(=O)C3CCCCC3)ccc2O[C@H]1CN(C)Cc1ccc(-c2ccccc2)cc1 ?
inactive

Would you kindly repeat that for C[C@H]1CN([C@@H](C)CO)C(=O)Cc2cc(NC(=O)C3CCCCC3)ccc2O[C@@H]1CN(C)Cc1ccc(-c2ccccc2)cc1 ?
inactive

Could you do the same for Cc1ccc(S(=O)(=O)N(C)C[C@H]2OCCCC[C@@H](C)Oc3ccc(NC(=O)Nc4ccc(F)cc4)cc3C(=O)N([C@@H](C)CO)C[C@H]2C)cc1 , please?
active

Please answer likewise for C[C@@H]1CN([C@@H](C)CO)S(=O)(=O)c2ccc(C#CC3CC3)cc2O[C@H]1CN(C)C(=O)C1CCCCC1
inactive

Follow-up entry: C[C@H](O)C#Cc1ccc2c(c1)O[C@@H](CN(C)C(=O)C1CCCCC1)[C@H](C)CN([C@H](C)CO)S2(=O)=O
inactive

Input C[C@H]1CCCCO[C@@H](CN(C)C(=O)Cc2ccccc2)[C@@H](C)CN([C@@H](C)CO)C(=O)c2cc(NS(=O)(=O)c3ccc(F)cc3)ccc2O1
active

Thanks! And C[C@@H]1CN([C@@H](C)CO)C(=O)Cc2cc(NC(=O)C3CCCCC3)ccc2O[C@@H]1CN(C)Cc1ccc(-c2ccccc2)cc1 ?
active

// query: C[C@@H]1CN([C@H](C)CO)C(=O)c2cccc(NC(=O)NC3CCCCC3)c2O[C@@H]1CN(C)Cc1ccc(Oc2ccccc2)cc1
inactive

Also need Cc1noc(C)c1NC(=O)Nc1ccc2c(c1)C(=O)N([C@H](C)CO)C[C@H](C)[C@H](CN(C)S(=O)(=O)c1ccccc1)O2 , thanks.
inactive

Same question, Cc1ccc(S(=O)(=O)N(C)C[C@@H]2OCCCC[C@H](C)Oc3ccc(NC(=O)Nc4ccc(F)cc4)cc3C(=O)N([C@@H](C)CO)C[C@H]2C)cc1 this time
inactive

Lookup C[C@H](CO)N1C[C@H](C)[C@@H](CN(C)C(=O)C2CCCCC2)Oc2cc(C#Cc3ccncc3)ccc2S1(=O)=O
active

Now the same for Cc1ccc(S(=O)(=O)N(C)C[C@@H]2OCCCC[C@@H](C)Oc3ccc(NC(=O)Nc4ccccc4)cc3C(=O)N([C@@H](C)CO)C[C@H]2C)cc1
active

Repeat for the following compound: C[C@@H]1CN([C@H](C)CO)S(=O)(=O)c2ccc(C#Cc3ccncc3)cc2O[C@H]1CN(C)C(=O)C1CCCCC1
active

And Cc1ccc(S(=O)(=O)N(C)C[C@@H]2OCCCC[C@@H](C)Oc3ccc(NC(=O)Nc4ccccc4)cc3C(=O)N([C@H](C)CO)C[C@H]2C)cc1 ?
inactive

Same question for Cc1noc(C)c1S(=O)(=O)N(C)C[C@@H]1Oc2ccc(N(C)C)cc2CC(=O)N([C@@H](C)CO)C[C@H]1C please.
inactive

Please answer likewise for Cc1ccc(S(=O)(=O)N(C)C[C@H]2OCCCC[C@@H](C)Oc3ccc(NC(=O)Nc4ccc(F)cc4)cc3C(=O)N([C@H](C)CO)C[C@H]2C)cc1
inactive

Please give the result for COc1ccccc1S(=O)(=O)N(C)C[C@H]1OCc2cn(nn2)CCCC(=O)N([C@@H](C)CO)C[C@@H]1C too.
inactive

For C[C@H]1CN([C@@H](C)CO)S(=O)(=O)c2ccc(C#Cc3ccncc3)cc2O[C@H]1CN(C)C(=O)C1CCCCC1 then?
inactive

Another compound to check: Cc1ccc(S(=O)(=O)N(C)C[C@@H]2OCCCC[C@@H](C)Oc3ccc(NC(=O)Nc4ccc(F)cc4)cc3C(=O)N([C@@H](C)CO)C[C@@H]2C)cc1
inactive

Request: C[C@@H]1CN([C@H](C)CO)C(=O)Cc2cc(NC(=O)C3CCCCC3)ccc2O[C@@H]1CN(C)Cc1ccc(-c2ccccc2)cc1
active

Note, next up: C[C@@H]1CN([C@H](C)CO)C(=O)c2cc(NS(=O)(=O)c3ccc(Cl)cc3)ccc2O[C@@H](C)CCCCO[C@@H]1CN(C)C(=O)Cc1ccccc1
active

Note, next up: CCCCCCOc1cccc(N)c1
inactive

Entry to check: Cc1ccc(S(=O)(=O)Nc2ccc3c(c2)C(=O)N([C@@H](C)CO)C[C@@H](C)[C@H](CN(C)C(=O)Cc2ccccc2)OCCCC[C@H](C)O3)cc1
inactive

Consider next the compound C[C@@H]1CCCCO[C@@H](CN(C)S(=O)(=O)c2cn(C)cn2)[C@H](C)CN([C@@H](C)CO)C(=O)c2cc(N(C)C)ccc2O1 in the same way.
inactive

Next up: C[C@@H]1CCCCO[C@@H](CN(C)C(=O)Cc2ccccc2)[C@@H](C)CN([C@H](C)CO)C(=O)c2cc(NS(=O)(=O)c3ccc(F)cc3)ccc2O1
inactive

Next up: C[C@H](CO)N1C[C@H](C)[C@H](CN(C)C(=O)C2CCCCC2)Oc2cc(C#Cc3ccncc3)ccc2S1(=O)=O
active

====

tested on: HepG2; experiment: cytotoxicity call (relative viability < 0.9); conditions: 10 µM
The campaign covered roughly 39,000 compounds. About 3,300 (8.5%) were called active. Shown is part of a subset that was picked to be rich in actives.
Result category, one only: active, inactive

Each compound tested received a call. Report the one for C[C@@H]1CCCCO[C@@H](CN(C)Cc2ccc3c(c2)OCO3)[C@H](C)CN([C@H](C)CO)C(=O)c2cc(NC(=O)NC3CCCCC3)ccc2O1 .
inactive

Query COc1ccc(S(=O)(=O)Nc2ccc3c(c2)C(=O)N([C@@H](C)CO)C[C@@H](C)[C@@H](CN(C)C(=O)CCC(F)(F)F)OCCCC[C@@H](C)O3)cc1 next
inactive

Follow-up item: C[C@@H]1CCCCO[C@@H](CN(C)Cc2ccc3c(c2)OCO3)[C@@H](C)CN([C@H](C)CO)C(=O)c2cc(NC(=O)NC3CCCCC3)ccc2O1
inactive

Would you mind doing C[C@@H]1CCCCO[C@H](CN(C)Cc2ccc3c(c2)OCO3)[C@@H](C)CN([C@H](C)CO)C(=O)c2cc(NC(=O)Nc3cccc4ccccc34)ccc2O1 as well?
inactive

Please answer likewise for C[C@@H]1CN([C@@H](C)CO)C(=O)c2cc(NC(=O)NC3CCCCC3)ccc2O[C@@H](C)CCCCO[C@@H]1CN(C)Cc1ccc2c(c1)OCO2
inactive

Same for COc1cccc(S(=O)(=O)Nc2ccc3c(c2)C(=O)N(C)C[C@H](OC)[C@@H](C)CN(C(=O)Cc2cccnc2)[C@@H](C)CO3)c1
inactive

Field entry: C[C@H](CO)N1C[C@H](C)[C@H](CN(C)Cc2ccc3c(c2)OCO3)OCCCC[C@H](C)Oc2ccc(NC(=O)NC3CCCCC3)cc2C1=O
active

Now the same for C[C@H]1CN([C@@H](C)CO)C(=O)c2cc(NC(=O)NC3CCCCC3)ccc2O[C@@H]1CN(C)S(=O)(=O)c1cn(C)cn1
inactive

What would you report for C[C@@H]1CCCCO[C@H](CN(C)Cc2ccc3c(c2)OCO3)[C@H](C)CN([C@H](C)CO)C(=O)c2cc(NC(=O)NC3CCCCC3)ccc2O1 ?
inactive

// query: C[C@H]1CCCCO[C@H](CN(C)Cc2ccc3c(c2)OCO3)[C@@H](C)CN([C@@H](C)CO)C(=O)c2cc(NC(=O)NC3CCCCC3)ccc2O1
inactive

Please answer likewise for NCCCCCCNC(=O)[C@H]1C[C@H]2C(=O)N[C@@H](Cc3ccccc3)C(=O)N2[C@H]1c1cccc(OCCO)c1
inactive

Same read-out for C[C@@H]1CCCCO[C@@H](CN(C)Cc2ccc3c(c2)OCO3)[C@@H](C)CN([C@@H](C)CO)C(=O)c2cc(NC(=O)NC3CCCCC3)ccc2O1 ?
inactive

What do you get for C[C@H]1CN([C@@H](C)CO)S(=O)(=O)c2ccc(Br)cc2O[C@@H]1CN(C)C(=O)c1cnccn1 ?
inactive

Now consider C[C@H](CO)N1C[C@H](C)[C@H](CN(C)Cc2ccc(Oc3ccccc3)cc2)Oc2ccc(NC(=O)C3CC3)cc2C1=O and answer again.
inactive

Could you do the same for C[C@@H]1CN([C@@H](C)CO)C(=O)c2cc(NC(=O)Nc3cccc4ccccc34)ccc2O[C@@H](C)CCCCO[C@@H]1CN(C)Cc1ccc2c(c1)OCO2 , please?
inactive

// repeat for C[C@@H]1CCCCO[C@H](CN(C)Cc2ccc3c(c2)OCO3)[C@@H](C)CN([C@H](C)CO)C(=O)c2cc(NC(=O)NC3CCCCC3)ccc2O1 and report
inactive

How about C[C@H]1CCCCO[C@H](CN(C)Cc2ccc3c(c2)OCO3)[C@@H](C)CN([C@@H](C)CO)C(=O)c2cc(NC(=O)Nc3cccc4ccccc34)ccc2O1 ?
active

Also C[C@@H]1CCCCO[C@H](CN(C)Cc2ccc3c(c2)OCO3)[C@H](C)CN([C@@H](C)CO)C(=O)c2cc(NC(=O)NC3CCCCC3)ccc2O1 ?
active

Another compound to check: CCCNC(=O)N(C)C[C@H]1Oc2cc(C#Cc3ccccn3)ccc2S(=O)(=O)N([C@@H](C)CO)C[C@@H]1C
inactive

Cool, now C[C@H](CO)N1C[C@H](C)[C@@H](CN(C)Cc2ccc3c(c2)OCO3)OCCCC[C@H](C)Oc2ccc(NC(=O)Nc3cccc4ccccc34)cc2C1=O
inactive

What do you get for C[C@H](CO)N1C[C@H](C)[C@@H](CN(C)Cc2ccc3c(c2)OCO3)OCCCC[C@H](C)Oc2ccc(NC(=O)NC3CCCCC3)cc2C1=O ?
inactive

Same question, C[C@H]1CN([C@@H](C)CO)C(=O)Cc2cc(NC(=O)CCN3CCOCC3)ccc2O[C@H]1CN(C)Cc1ccc(C(=O)O)cc1 this time
inactive

Now this one: COc1ccc(NC(=O)Nc2ccc3c(c2)C(=O)N([C@H](C)CO)C[C@H](C)[C@@H](CN(C)Cc2ccc(C(F)(F)F)cc2)OCCCC[C@H](C)O3)cc1
inactive

Ok, now C[C@@H]1CCCCO[C@@H](CN(C)Cc2ccc3c(c2)OCO3)[C@H](C)CN([C@@H](C)CO)C(=O)c2cc(NC(=O)Nc3cccc4ccccc34)ccc2O1
inactive

Then this compound: C[C@@H]1CN([C@@H](C)CO)C(=O)c2cc(NC(=O)c3ccccc3)ccc2O[C@@H](C)CCCCO[C@H]1CN(C)Cc1ccncc1
inactive

One more compound: C[C@@H]1CCCCO[C@@H](CN(C)Cc2ccc3c(c2)OCO3)[C@H](C)CN([C@H](C)CO)C(=O)c2cc(NC(=O)Nc3cccc4ccccc34)ccc2O1
active
